This collection of values is drawn from ChEMBL document CHEMBL5370558.

assay_procedure: Selectivity index, ratio of IC50 for cytotoxicity against human HDF cells to IC50 for anticancer activity against human SK-BR-3 cells
Type: toxicity, cell-based
condition_details: HDF cells versus SK-BR-3 cells, read-out: Ratio IC50
Rule: T for selectivity ratio not less than 2, F for anything less.

For orientation, consider the following solved cases.
CO[C@H]1/C=C\C=C(/C)C(=O)NC2=CC(=O)C(NCc3cn(CC=C(C)C)nn3)=C(C[C@@H](C)C[C@H](OC)[C@H](O)[C@@H](C)/C=C(\C)[C@@H]1OC(N)=O)C2=O | F
CO[C@H]1/C=C\C=C(/C)C(=O)NC2=CC(=O)C(NCc3cn(Cc4ccc(C#N)cc4)nn3)=C(C[C@@H](C)C[C@H](OC)[C@H](O)[C@@H](C)/C=C(\C)[C@@H]1OC(N)=O)C2=O | F
CO[C@H]1/C=C\C=C(/C)C(=O)NC2=CC(=O)C(NCc3cn(Cc4ccccc4)nn3)=C(C[C@@H](C)C[C@H](OC)[C@H](O)[C@@H](C)/C=C(\C)[C@@H]1OC(N)=O)C2=O | T

Does the reported selectivity ratio for CO[C@H]1/C=C\C=C(/C)C(=O)NC2=CC(=O)C(NCc3cn(Cc4ccc(Br)cc4)nn3)=C(C[C@@H](C)C[C@H](OC)[C@H](O)[C@@H](C)/C=C(\C)[C@@H]1OC(N)=O)C2=O fall at or above the 2 mark? F

Does the reported selectivity ratio for CO[C@H]1/C=C\C=C(/C)C(=O)NC2=CC(=O)C(NCc3cn(CC4CCOCC4)nn3)=C(C[C@@H](C)C[C@H](OC)[C@H](O)[C@@H](C)/C=C(\C)[C@@H]1OC(N)=O)C2=O fall at or above the 2 mark? F
